system: lipase; assay: Lipase/lipolysis assay (EnzChek Lipase Substrate, quenched BODIPY-fatty acid conjugate) on stored human milk; note: test concentration or dose not given here
Where a SMILES comes first, the peptide text is derived from it.
PROPERTY MEASURED: Lipase (RFU)
Entry rule: numbers only, all in RFU.

Asked: Name the reported Lipase (RFU) value associated with the molecule "O=C[C@H](O)[C@H]1OC(=O)[C@@H](O)[C@H]1O"
Given back: 1111.254

Asked: Name the recorded Lipase (RFU) for "COc1ccc(-c2cc(=O)c3c(OC)c(OC)c(OC)c(OC)c3o2)cc1O" .
Given back: 794.5882

Asked: Look up Lipase (RFU): "O=c1ccc2ccc(O[C@@H]3O[C@H](CO)[C@@H](O)[C@H](O)[C@H]3O)cc2o1"
Given back: 1029.943

Asked: Give its Lipase (RFU) value. Item: OC[C@@H](O)[C@H](O)[C@H](O)[C@@H](O)CO [Dulcite]
Given back: 1020.567

Asked: Find the recorded Lipase (RFU) belonging to "CC(C(=O)O)C(=O)O" and report it.
Given back: 883.2913

Asked: Give its Lipase (RFU) value. Item: "COc1cc2c(cc1O)CC[C@@H]1[C@@H]2CC[C@]2(C)C(=O)CC[C@@H]12"
Given back: 970.0321

Asked: Please look up its Lipase (RFU): NC(=O)[C@@H]1CCCN1C(=O)[C@H](Cc1ccccc1)NC(=O)[C@@H]1CCCN1C(=O)[C@@H](N)Cc1ccc(O)cc1 [Morphiceptin] (H-YPFP-NH2)
Given back: 1251.045

Asked: Consider the molecule shown here: CCCCC[C@H](O)/C=C/[C@H]1C(=O)C[C@H](O)[C@@H]1C/C=C\CCCC(=O)O [Prostaglandin D2] What is its recorded Lipase (RFU)?
Given back: 071064.5

* * *

test system: lipase; experiment: Lipase/lipolysis assay (EnzChek Lipase Substrate, quenched BODIPY-fatty acid conjugate) on stored human milk; note: test concentration or dose not given here
# label = Fulfilled if Lipase (RFU) < 1000 RFU else Not fulfilled

Asked: Bench note: check whether O=C(c1ccccc1)C(O)c1ccccc1 (stereo not shown) shows Lipase (RFU) below 1000 RFU
Given back: Fulfilled

Asked: For this compound, is Lipase (RFU) lower than 1000 RFU? "CC(C)CCC[C@@H](C)[C@H]1CC[C@H]2[C@@H]3CCC4=CC(=O)CC[C@]4(C)[C@H]3CC[C@]12C"
Given back: Fulfilled

Asked: Answer whether the compound Oc1ccc([C@H]2Oc3cc(O)cc(O)c3C[C@@H]2O)cc1 [(+)-Afzelechin] has Lipase (RFU) strictly less than 1000 RFU
Given back: Not fulfilled

Asked: Bench note: check whether O=C(O)c1cc(O)c2c(c1)C(=O)c1cccc(O[C@@H]3O[C@H](CO)[C@@H](O)[C@H](O)[C@H]3O)c1C2=O [Rhein 8-Glucoside] shows Lipase (RFU) below 1000 RFU
Given back: Fulfilled

Asked: hey, is Lipase (RFU) for NC(=O)Cc1ccccc1 [Compound 2-Phenylacetamide, 2-Phenylacetamide] lower than 1000 RFU or not?
Given back: Fulfilled

Asked: State whether 1000 RFU exceeds Lipase (RFU) recorded for N=C(N)NOCC[C@H](N)C(=O)O.O=S(=O)(O)O [L-Canavanine sulfate] .
Given back: Fulfilled

Asked: Does this compound meet the criterion Lipase (RFU) < 1000 RFU? O=C(O)C(O)COP(=O)(O)O (stereo not shown)
Given back: Fulfilled

Asked: Here's an entry: N#CCc1ccc(O)cc1 [4-Hydroxybenzyl cyanide] . Is its Lipase (RFU) below 1000 RFU?
Given back: Not fulfilled

Asked: Is Lipase (RFU) of COc1cc(C=CC(=O)O)cc(OC)c1O (stereo in doubt) strictly below 1000 RFU?
Given back: Not fulfilled

Asked: Lab log: compare recorded Lipase (RFU) with 1000 RFU; is it strictly lower for C[C@H](O)[C@H](O)C1=Nc2c(nc(N)[nH]c2=O)NC1 [7,8-Dihydro-L-biopterin] ?
Given back: Not fulfilled

Asked: In the record for c1ccc(CSSCc2ccccc2)cc1 [Dibenzyl disulfide] , is Lipase (RFU) less than 1000 RFU?
Given back: Not fulfilled

Asked: Quick check: Lipase (RFU) of "COc1cc(-c2oc3cc(O[C@@H]4O[C@H](CO)[C@@H](O)[C@H](O)[C@H]4O)cc(O)c3c(=O)c2O)ccc1O" under 1000 RFU?
Given back: Not fulfilled
